Biological target: HPK1 (Homo sapiens)
Construct: purchased SignalChem M23-11G
Sequence (Q92918 1-346 limits assumed): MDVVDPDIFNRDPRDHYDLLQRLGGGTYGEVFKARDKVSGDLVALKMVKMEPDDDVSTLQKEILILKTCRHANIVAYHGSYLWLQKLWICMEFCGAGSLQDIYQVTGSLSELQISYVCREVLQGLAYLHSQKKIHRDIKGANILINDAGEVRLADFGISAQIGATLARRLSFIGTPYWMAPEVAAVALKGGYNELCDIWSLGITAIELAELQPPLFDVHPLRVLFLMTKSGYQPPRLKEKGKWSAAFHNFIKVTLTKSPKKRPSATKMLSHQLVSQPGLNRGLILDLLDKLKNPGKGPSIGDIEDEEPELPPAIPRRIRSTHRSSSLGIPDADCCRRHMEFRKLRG
Test: HPK1 Inhibition Assay (kinase reaction, Caliper capillary electrophoresis)
Assay type: biochemical
Conditions: 0.625 nM HPK1, 22 μM ATP, 11 concentrations; read-out: HPK1 IC50
The entries below come with measured IC50 values attached.

Take a look at these entries with their results.
CCCc1noc(-c2cnc(Nc3ccc4c(c3)C(C)(C)OC4=O)nc2N[C@H](CO)c2ccccc2)n1 = < 50 nM
COCCNC(=O)c1cnc(Nc2ccc3c(c2)C(C)(C)OC3=O)nc1N[C@H](CO)c1ccccc1 = < 50 nM
CC(NC(=O)c1cnc(Nc2ccc3c(c2)C(C)(C)OC3=O)nc1N[C@H](CO)c1ccccc1)c1ccccc1 (stereo partly shown) = 50 to 250 nM
CC1(C)OC(=O)c2ccc(Nc3ncc(-c4nnc(-c5ccccn5)o4)c(N[C@H](CO)c4ccccc4)n3)cc21 = 50 to 250 nM
CC(C)(C)NC(=O)c1cnc(Nc2ccc3c(c2)C(C)(C)OC3=O)nc1N[C@H](CO)c1ccccc1 = < 50 nM
CC1(CNC(=O)c2cnc(Nc3ccc4c(c3)C(C)(C)OC4=O)nc2N[C@H](CO)c2ccccc2)COC1 = < 50 nM

We now examine a further compound.
Ask: // IC50 lookup, key: CC(C)(CO)c1noc(-c2cnc(Nc3ccc4c(c3)C(C)(C)OC4=O)nc2N[C@H](CO)c2ccccc2)n1
Result: < 50 nM
